The measured values listed here are drawn from paper PMC12472352.

- experimentalSystem: UniProt:P11712
- Sequence (P11712 whole entry): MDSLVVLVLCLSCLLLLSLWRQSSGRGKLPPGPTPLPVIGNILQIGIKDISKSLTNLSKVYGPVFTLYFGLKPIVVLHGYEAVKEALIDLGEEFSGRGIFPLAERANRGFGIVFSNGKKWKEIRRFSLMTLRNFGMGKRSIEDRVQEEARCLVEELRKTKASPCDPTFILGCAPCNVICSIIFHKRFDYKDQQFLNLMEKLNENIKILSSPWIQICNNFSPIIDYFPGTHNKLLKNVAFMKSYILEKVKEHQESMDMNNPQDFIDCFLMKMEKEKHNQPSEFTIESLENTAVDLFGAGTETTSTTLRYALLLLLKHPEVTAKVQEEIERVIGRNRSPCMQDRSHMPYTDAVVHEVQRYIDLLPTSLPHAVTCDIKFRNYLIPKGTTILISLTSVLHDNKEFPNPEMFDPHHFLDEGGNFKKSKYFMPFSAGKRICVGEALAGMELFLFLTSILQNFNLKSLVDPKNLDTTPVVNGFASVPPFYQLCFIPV
- experimentalDetails: UV-vis absorption spectral titration (Soret peak) of purified recombinant CYP2C9; also electrochemical activation
reportedMetric: pKd
Value format note: pKd is -log10 of concentration (mol/L); just state the number.

I have this molecule here, Cc1cc2nc3c(=O)[nH]c(=O)nc-3n(C[C@H](O)[C@H](O)[C@H](O)COP(=O)(O)OP(=O)(O)OC[C@H]3O[C@@H](n4cnc5c(N)ncnc54)[C@H](O)[C@@H]3O)c2cc1C , and I need its recorded pKd. 3.76
